assay: Plasma pharmacokinetics of CR665 after single IV infusion in human subjects; conditions: female, human, plasma, intravenous, 0.06 mg/kg, CL, geometric least squares mean, females, 5-minute infusion
Structures can show the parent of a compound that is named as a salt. Non-standard residues stand in square brackets, D forms with d. Residues, ends and D or L forms follow the SMILES beside them. *: point of attachment. NH(4-picolyl) = c1cc(CN*)ccn1; dNle = CCCC[C@@H](N)C(=O)O
property name: clearance

Would you mind telling me what clearance value was observed for CCCC[C@@H](NC(=O)[C@@H](Cc1ccccc1)NC(=O)[C@H](N)Cc1ccccc1)C(=O)N[C@H](CCCNC(=N)N)C(=O)NCc1ccncc1 [CR665, acetate salt] (H-[dF][dF][dNle][dR]-{NH(4-picolyl)}) ?
544 mL/min

====

assay: Urinary excretion of CR665 after single IV infusion in human subjects; type: in vivo; details: female, human, urine, iv, 0.06 mg/kg, females, 5-minute infusion; read-out: Fraction of unchanged drug excreted in the urine
Counter-ions that a name gives are not always drawn. Non-standard residues stand in square brackets, D forms with d. Residues, ends and D or L forms follow the SMILES beside them. *: point of attachment. NH(4-picolyl) = c1cc(CN*)ccn1; dNle = CCCC[C@@H](N)C(=O)O
property name: dose excreted
Output should be the measured figure followed by the unit it is expressed in.

Reported dose excreted for CCCC[C@@H](NC(=O)[C@@H](Cc1ccccc1)NC(=O)[C@H](N)Cc1ccccc1)C(=O)N[C@H](CCCNC(=N)N)C(=O)NCc1ccncc1 [CR665, acetate salt] (H-[dF][dF][dNle][dR]-{NH(4-picolyl)}) : what is it?
3.8%

====

assay: Plasma pharmacokinetics of CR665 after single IV infusion in human subjects; conditions: male, human, plasma, iv, 0.03 mg/kg, AUC0-t, males, 5-minute IV infusion, geometric mean
Structures can show the parent of a compound that is named as a salt. Non-standard residues stand in square brackets, D forms with d. Residues, ends and D or L forms follow the SMILES beside them. *: point of attachment. NH(4-picolyl) = c1cc(CN*)ccn1; dNle = CCCC[C@@H](N)C(=O)O
property name: AUC(0-t)
Answer format: number, then unit.

# query: AUC(0-t) of entry CCCC[C@@H](NC(=O)[C@@H](Cc1ccccc1)NC(=O)[C@H](N)Cc1ccccc1)C(=O)N[C@H](CCCNC(=N)N)C(=O)NCc1ccncc1 [CR665, acetate salt] (H-[dF][dF][dNle][dR]-{NH(4-picolyl)})
65.9 ng·h/mL
